# binding signal per record follows
system: AGO2 A367P (Homo sapiens, UniProt Q9UKV8 1-859, A367P;S387D;S824A;S828D;S831D;S834A)
Sequence (Q9UKV8 whole entry A367P/S387D/S824A/S828D/S831D/S834A): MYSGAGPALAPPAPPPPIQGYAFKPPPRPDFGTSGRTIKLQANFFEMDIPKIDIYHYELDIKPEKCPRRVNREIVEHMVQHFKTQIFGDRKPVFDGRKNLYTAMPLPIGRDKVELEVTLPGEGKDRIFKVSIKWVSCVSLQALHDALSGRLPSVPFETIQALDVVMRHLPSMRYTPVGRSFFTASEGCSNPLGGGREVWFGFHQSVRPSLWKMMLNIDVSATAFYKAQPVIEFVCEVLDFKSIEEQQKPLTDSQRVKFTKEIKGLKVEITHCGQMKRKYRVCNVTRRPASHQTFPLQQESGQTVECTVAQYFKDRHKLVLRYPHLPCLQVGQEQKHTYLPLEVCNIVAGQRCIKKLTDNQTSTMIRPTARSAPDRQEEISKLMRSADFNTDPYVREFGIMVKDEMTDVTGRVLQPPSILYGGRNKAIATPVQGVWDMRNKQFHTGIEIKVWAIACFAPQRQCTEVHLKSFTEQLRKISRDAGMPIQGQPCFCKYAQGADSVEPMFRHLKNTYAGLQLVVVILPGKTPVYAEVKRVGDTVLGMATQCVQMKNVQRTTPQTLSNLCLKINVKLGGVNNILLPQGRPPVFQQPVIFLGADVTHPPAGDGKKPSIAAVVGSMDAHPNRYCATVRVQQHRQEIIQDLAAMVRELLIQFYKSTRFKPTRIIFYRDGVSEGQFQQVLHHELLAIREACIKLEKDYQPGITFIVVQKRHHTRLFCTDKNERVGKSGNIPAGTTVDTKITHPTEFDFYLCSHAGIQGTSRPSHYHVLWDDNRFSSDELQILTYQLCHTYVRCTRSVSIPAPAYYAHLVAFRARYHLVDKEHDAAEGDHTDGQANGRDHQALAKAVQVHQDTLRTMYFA
test_summary: RNA Bind-n-Seq (nitrocellulose filter binding and sequencing); miR-122 guide loaded in AGO2; 60 min incubation; 30 mM Tris pH 8.0, 100 mM potassium acetate, 2 mM magnesium acetate, 0.5 mM TCEP, 0.005% NP-40, 0.01 mg/ml yeast tRNA; 3 nM AGO2-miR-122, 100 nM RNA library; 60; high values mean tight binding
run_conditions: protein: recombinant; tags: His6 (N-terminal, pFastBac HTA)
measured_property: binding signal

binder | recorded_result
ATATTCCG (ssRNA, constant regions annealed to DNA blockers; guide miR-122 5' phosphate) RNA 1: GAGUUCUACAGUCCGACGAUCCCAACAUAUUCCGCACCUGGAAUUCUCGGGUGCCAA RNA 2: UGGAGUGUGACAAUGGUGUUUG DNA 1: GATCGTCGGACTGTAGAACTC DNA 2: TTGGCACCCGAGAATTCCA | 0.136 fold enrichment over input
ATATCCTA (ssRNA, constant regions annealed to DNA blockers; guide miR-122 5' phosphate) RNA 1: GAGUUCUACAGUCCGACGAUCCCAACAUAUCCUACACCUGGAAUUCUCGGGUGCCAA RNA 2: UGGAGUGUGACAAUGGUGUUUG DNA 1: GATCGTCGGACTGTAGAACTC DNA 2: TTGGCACCCGAGAATTCCA | 0.17 fold enrichment over input
GTGCCCTA (ssRNA, constant regions annealed to DNA blockers; guide miR-122 5' phosphate) RNA 1: GAGUUCUACAGUCCGACGAUCCCAACGUGCCCUACACCUGGAAUUCUCGGGUGCCAA RNA 2: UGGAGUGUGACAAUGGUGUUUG DNA 1: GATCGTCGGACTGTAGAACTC DNA 2: TTGGCACCCGAGAATTCCA | 0.188 fold enrichment over input
ATATTTTG (ssRNA, constant regions annealed to DNA blockers; guide miR-122 5' phosphate) RNA 1: GAGUUCUACAGUCCGACGAUCCCAACAUAUUUUGCACCUGGAAUUCUCGGGUGCCAA RNA 2: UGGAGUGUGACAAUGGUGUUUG DNA 1: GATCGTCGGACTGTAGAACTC DNA 2: TTGGCACCCGAGAATTCCA | 0.149 fold enrichment over input
